Cited source for all entries: ChEMBL document CHEMBL4819017

Recorded measurements of IC50, one per entry
tgt: UniProt:P11712
Sequence (P11712 whole entry): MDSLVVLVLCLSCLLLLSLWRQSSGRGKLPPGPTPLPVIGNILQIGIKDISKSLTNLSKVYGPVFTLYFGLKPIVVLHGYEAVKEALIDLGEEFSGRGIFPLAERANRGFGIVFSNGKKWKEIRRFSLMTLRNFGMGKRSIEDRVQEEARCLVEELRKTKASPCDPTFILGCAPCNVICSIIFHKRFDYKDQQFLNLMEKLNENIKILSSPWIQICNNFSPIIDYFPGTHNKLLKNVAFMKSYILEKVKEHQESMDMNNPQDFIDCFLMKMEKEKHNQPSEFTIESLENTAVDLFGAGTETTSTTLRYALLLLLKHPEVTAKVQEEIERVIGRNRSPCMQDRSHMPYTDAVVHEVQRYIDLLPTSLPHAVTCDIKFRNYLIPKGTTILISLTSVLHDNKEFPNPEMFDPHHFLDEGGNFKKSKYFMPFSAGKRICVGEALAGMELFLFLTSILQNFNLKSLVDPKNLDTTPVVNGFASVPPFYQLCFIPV

sample smiles: COc1ncc2cc1NS(=O)(=O)c1cccc(c1)C(=O)NCc1cncc(c1)-c1ncnc3ccc-2cc13
IC50: > 30 µM
//
sample smiles: COc1ncc2cc1NS(=O)(=O)c1cccc(c1)C(=O)NCc1cccc(c1)-c1ncnc3ccc-2cc13
IC50: > 30 µM

Now consider the entry below.
Record for "COc1ncc2cc1NS(=O)(=O)c1cc(c(F)cc1F)C(=O)NCc1cncc(c1)-c1ccnc3ccc-2cc13" under target or system UniProt:P11712: IC50 reported as 8.3 µM

* * *

tgt: PI3-kinase p110-alpha/p85-alpha (Homo sapiens)
Sequence (P27986 whole entry): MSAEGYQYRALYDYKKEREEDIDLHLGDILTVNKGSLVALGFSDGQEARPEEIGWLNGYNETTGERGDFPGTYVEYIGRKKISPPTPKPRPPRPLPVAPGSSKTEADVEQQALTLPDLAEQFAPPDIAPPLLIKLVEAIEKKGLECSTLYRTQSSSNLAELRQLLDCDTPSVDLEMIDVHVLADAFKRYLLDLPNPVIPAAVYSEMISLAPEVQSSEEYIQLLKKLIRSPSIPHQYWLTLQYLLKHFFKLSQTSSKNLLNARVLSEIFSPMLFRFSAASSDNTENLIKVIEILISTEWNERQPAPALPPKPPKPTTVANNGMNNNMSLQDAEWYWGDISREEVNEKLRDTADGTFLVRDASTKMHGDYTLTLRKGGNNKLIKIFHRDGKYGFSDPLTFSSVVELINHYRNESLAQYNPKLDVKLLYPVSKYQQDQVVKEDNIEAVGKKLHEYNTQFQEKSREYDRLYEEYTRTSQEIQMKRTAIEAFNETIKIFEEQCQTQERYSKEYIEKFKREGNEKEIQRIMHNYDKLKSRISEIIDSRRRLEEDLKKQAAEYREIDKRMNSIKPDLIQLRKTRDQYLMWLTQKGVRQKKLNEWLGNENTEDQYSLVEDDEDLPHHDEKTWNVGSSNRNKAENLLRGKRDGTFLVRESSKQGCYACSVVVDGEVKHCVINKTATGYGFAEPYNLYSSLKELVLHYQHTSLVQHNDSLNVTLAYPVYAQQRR
Sequence (P42336 whole entry): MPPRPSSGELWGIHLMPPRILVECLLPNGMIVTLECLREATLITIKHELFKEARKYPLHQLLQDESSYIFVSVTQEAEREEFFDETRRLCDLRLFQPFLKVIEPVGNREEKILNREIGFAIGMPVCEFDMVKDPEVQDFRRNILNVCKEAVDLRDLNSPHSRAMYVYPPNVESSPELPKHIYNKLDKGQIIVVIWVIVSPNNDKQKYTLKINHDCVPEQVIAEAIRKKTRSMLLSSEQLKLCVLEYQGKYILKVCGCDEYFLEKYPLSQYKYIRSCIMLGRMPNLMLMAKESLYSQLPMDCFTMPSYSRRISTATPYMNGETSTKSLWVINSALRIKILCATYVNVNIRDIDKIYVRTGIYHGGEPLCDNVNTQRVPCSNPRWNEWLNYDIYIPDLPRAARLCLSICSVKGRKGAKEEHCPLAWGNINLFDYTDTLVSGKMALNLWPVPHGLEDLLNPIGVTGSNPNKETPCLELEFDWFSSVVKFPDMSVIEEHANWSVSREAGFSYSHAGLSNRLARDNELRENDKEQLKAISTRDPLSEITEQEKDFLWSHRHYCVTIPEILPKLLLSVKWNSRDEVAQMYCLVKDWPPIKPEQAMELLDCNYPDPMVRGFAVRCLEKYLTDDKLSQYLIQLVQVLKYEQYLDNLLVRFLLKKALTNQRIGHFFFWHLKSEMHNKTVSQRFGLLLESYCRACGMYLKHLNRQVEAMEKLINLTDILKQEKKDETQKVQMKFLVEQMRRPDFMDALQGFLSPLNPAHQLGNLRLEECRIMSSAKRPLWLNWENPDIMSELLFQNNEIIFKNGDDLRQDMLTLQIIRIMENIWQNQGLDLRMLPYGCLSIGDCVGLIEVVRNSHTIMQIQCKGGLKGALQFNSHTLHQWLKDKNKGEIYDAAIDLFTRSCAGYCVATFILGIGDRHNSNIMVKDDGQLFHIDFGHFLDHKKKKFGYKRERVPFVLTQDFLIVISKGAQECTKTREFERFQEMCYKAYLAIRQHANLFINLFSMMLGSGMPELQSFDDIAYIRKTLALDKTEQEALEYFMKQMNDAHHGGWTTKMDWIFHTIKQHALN
measurement notes: Inhibition of human p110alpha/p85alpha using PIP2 as substrate in presence of ATP measured by HTRF assay
quantity kind: Ki (pM)
Response body: numeric value in pM, unit text excluded.

Form field Ki for item "COc1ncc2cc1NS(=O)(=O)c1cccc(c1)C(=O)NCc1cncc(c1)-c1cnc3ccc-2cn13" on PI3-kinase p110-alpha/p85-alpha (Homo sapiens): 160
